Entries and their Activity values follow.
species on record: Rattus norvegicus; experiment: Effect on arterial blood pressure in Wistar rat in pressor test; type: functional, organism-based
Positions of bridges follow the written chain, without caps; N, C: chain ends. Non-standard residues stand in square brackets, D forms with d. Residues, ends and D or L forms follow the SMILES beside them. Aic = NC1(C(=O)O)Cc2ccccc2C1

Entry NC(=O)CC[C@@H]1NC(=O)[C@H](Cc2ccccc2)NC(=O)C2(Cc3ccccc3C2)NC(=O)[C@@H](N)CSSC[C@@H](C(=O)N2CCC[C@H]2C(=O)N[C@@H](CCCN=C(N)N)C(=O)NCC(N)=O)NC(=O)[C@H](CC(N)=O)NC1=O ; Activity = 9.4 IU/mg

Entry CC(C)[C@@H]1NC(=O)[C@H](Cc2ccccc2)NC(=O)C2(Cc3ccccc3C2)NC(=O)[C@@H](N)CSSC[C@@H](C(=O)N2CCC[C@H]2C(=O)N[C@@H](CCCN=C(N)N)C(=O)NCC(N)=O)NC(=O)[C@H](CC(N)=O)NC1=O (H-C[Aic]FVNCPRG-NH2; disulfide 1-6) ; Activity = 0 IU/mg

---

test system: Rattus norvegicus; test: Antidiuretic activity in sc dosed conscious Wistar rat in an antidiuresis time of t1/2 200 mins relative to AVP; format: functional, Urine
Positions of bridges follow the written chain, without caps; N, C: chain ends. Non-standard residues stand in square brackets, D forms with d. Residues, ends and D or L forms follow the SMILES beside them. Aic = NC1(C(=O)O)Cc2ccccc2C1
readout_kind: Activity (IU/mg)
// note: answer is a bare numeric in IU/mg

As a guide, the following entries are already answered.
compound | u | Activity
NC(=O)CC[C@@H]1NC(=O)[C@H](Cc2ccccc2)NC(=O)C2(Cc3ccccc3C2)NC(=O)CCSSC[C@@H](C(=O)N2CCC[C@H]2C(=O)N[C@H](CCCN=C(N)N)C(=O)NCC(N)=O)NC(=O)[C@H](CC(N)=O)NC1=O | IU/mg | 45000
CC(C)[C@@H]1NC(=O)[C@H](Cc2ccccc2)NC(=O)C2(Cc3ccccc3C2)NC(=O)CCSSC[C@@H](C(=O)N2CCC[C@H]2C(=O)N[C@H](CCCN=C(N)N)C(=O)NCC(N)=O)NC(=O)[C@H](CC(N)=O)NC1=O | IU/mg | 450000
NC(=O)CC[C@@H]1NC(=O)[C@H](Cc2ccccc2)NC(=O)C2(Cc3ccccc3C2)NC(=O)[C@@H](N)CSSC[C@@H](C(=O)N2CCC[C@H]2C(=O)N[C@@H](CCCN=C(N)N)C(=O)NCC(N)=O)NC(=O)[C@H](CC(N)=O)NC1=O | IU/mg | 45000
CC(C)[C@@H]1NC(=O)[C@H](Cc2ccccc2)NC(=O)C2(Cc3ccccc3C2)NC(=O)[C@@H](N)CSSC[C@@H](C(=O)N2CCC[C@H]2C(=O)N[C@@H](CCCN=C(N)N)C(=O)NCC(N)=O)NC(=O)[C@H](CC(N)=O)NC1=O (H-C[Aic]FVNCPRG-NH2; disulfide 1-6) | IU/mg | 45000
NC(=O)CC[C@@H]1NC(=O)[C@H](Cc2ccccc2)NC(=O)C2(Cc3ccccc3C2)NC(=O)[C@@H](N)CSSC[C@@H](C(=O)N2CCC[C@H]2C(=O)N[C@H](CCCN=C(N)N)C(=O)NCC(N)=O)NC(=O)[C@H](CC(N)=O)NC1=O | IU/mg | 4500

Entry NC(=O)CC[C@@H]1NC(=O)[C@H](Cc2ccccc2)NC(=O)C2(Cc3ccccc3C2)NC(=O)CCSSC[C@@H](C(=O)N2CCC[C@H]2C(=O)N[C@@H](CCCN=C(N)N)C(=O)NCC(N)=O)NC(=O)[C@H](CC(N)=O)NC1=O ; Activity = 45000

Entry CC(C)[C@@H]1NC(=O)[C@H](Cc2ccccc2)NC(=O)C2(CCCCC2)NC(=O)CCSSC[C@@H](C(=O)N2CCC[C@H]2C(=O)N[C@H](CCCN=C(N)N)C(=O)NCC(N)=O)NC(=O)[C@H](CC(N)=O)NC1=O ; Activity = 50000
